Tested on: MDA-N
Assay: NCI tumour cell line growth inhibition, 48 h
test_readout: TGI

O=C(O)c1ccc(Nc2nc3ccccc3nc2C(=O)O)cc1 ... > 100 µM
CC(C)(C)c1cc(C2COC(=O)COCC(=O)OCCOCCOCCO2)cc(C(C)(C)C)c1O (stereo unspecified) ... 38.5 µM
CCOC(=O)C(NCc1cccc(C(F)(F)F)c1)(NC(=O)c1ccccc1)C(F)(F)F (stereo unspecified) ... > 100 µM
O=[N+]([O-])c1ccc(Cl)cc1C=NC12CC3CC(CC(C3)C1)C2 ... > 100 µM
c1cncc(CNc2ncn[nH]2)c1 ... > 100 µM

Record NC(=O)NCCCC(NC(=O)OCCCCCn1ccc(=O)[nH]c1=O)C(=O)O (stereo unspecified) . Reported TGI: > 100 µM

Record COc1cc(C(SCc2ccccc2)SCc2ccccc2)ccc1O . Reported TGI: > 10 µM

Record COc1ccc(C2=CN3CCC[C@H]3C=C2c2cc(O)c(OC)c(OC)c2)cc1OC . Reported TGI: 0.104 µM

Record CCS(=O)(=O)c1c2cc(OC)ccc2nc2ccc(OC)cc12 . Reported TGI: > 100 µM

Record O=C1C(N=Nc2ccc(-c3nc4ccccc4[nH]3)cc2)NC(=S)N1c1ccccc1 (stereo unspecified) . Reported TGI: > 100 µM

Record C/C(N=Nc1nc2ccccc2o1)=C1/C=CC=CN1O . Reported TGI: > 100 µM

Record CN(C)CC(NC(NCS)C(=O)NCCNc1ccc(NCCNC(=O)C(NCS)NC(CN(C)C)OCCl)c2c1C(=O)c1c(O)ccc(O)c1C2=O)OCCl (stereo unspecified) . Reported TGI: 1.09 µM

Record OCCO[P+]1(OCCO)n2c3ccc2C(c2ccccc2)=C2C=CC(=N2)C(c2ccccc2)=c2ccc(n21)=C(c1ccccc1)C1=NC(=C3c2ccccc2)C=C1 . Reported TGI: 0.092 µM

----------
Tested on: SK-MEL-5 melanoma
Experiment: NCI tumour cell line growth inhibition, 48 h
test_readout: TGI (µM)
Number only, in µM; omit the unit.

Some compounds with recorded TGI:
Cc1c(F)c(N)c2c(=O)cc(-c3ccc(NC(=O)C(N)CCCN=C(N)N)c(F)c3)oc2c1F (stereo not given) ... 76.8
COc1ccc(-c2csc3c2-n2cccc2C3=O)cc1O ... 0.237
COC(=O)c1ccccc1CC(Cc1ccccc1)C(=O)OC (stereo not given) ... 54.8
Cc1ccc(Oc2nc3ccccc3cc2-c2nnc(Cn3c(COc4ccccc4)nc4ccccc43)o2)cc1 ... 3.97

// returns TGI for OCC(O)C(O)C(O)C(/C=N\Nc1ncnc2ccc(Br)cc12)=N/Nc1ncnc2ccc(Br)cc12 (stereo not given) with SK-MEL-5 melanoma; value = 18

----------
Tested on: IGROV1 ovarian
Assay: NCI tumour cell line growth inhibition, 48 h; in the data active = GI50 below about 0.43 µM; inactive = the rest
Pick one: active, inactive

O=C(Nc1cccc(-n2ccc3c(NC(=O)c4ccccc4)nccc32)c1)c1cc(N2CCOCC2)cc(C(F)(F)F)c1 ... active
N/C(=N\c1nc2ccccc2s1)NC(=O)Nc1cccc2ccccc12 ... active
C=C(C)[C@@H]1CC[C@]2(C(=O)NCCNCCNCCN)CC[C@]3(C)[C@H](CC[C@@H]4[C@@]5(C)CCC(=O)C(C)(C)[C@@H]5CC[C@]43C)[C@@H]12 ... inactive

Please look at the following molecule next.
Data request: # outcome recorded in this test, key = CCN1CCC(CC(=O)Nc2n[nH]c3nc(-c4cccs4)c(Br)cc23)CC1
Data returned: inactive
